System: NCI-H522
Test description: NCI tumour cell line growth inhibition, 48 h
Activity calls are given as the source filed them. No stated cut-off is given here; in the data, active = GI50 up to about 1.1 µM and inactive = higher.
Labels: active, inactive

[
  {
    "Compound": "C=C1c2nc3ccccc3n2C=C(c2ccccc2)N1c1ccc([N+](=O)[O-])cc1",
    "Group": "inactive"
  },
  {
    "Compound": "CC[C@H](NC(=O)OC(C)(C)C)C(=O)NCP(=O)(OCc1ccc([N+](=O)[O-])cc1)OCc1ccc([N+](=O)[O-])cc1",
    "Group": "inactive"
  },
  {
    "Compound": "COc1cccc([C@H]2C/C(=N\\NC(=O)C(=O)N[C@@H](C)c3ccccc3)c3ccccc3N2)c1",
    "Group": "inactive"
  },
  {
    "Compound": "Cc1c(C(=O)/C=C/c2ccc([N+](=O)[O-])cc2)[n+]([O-])c2ccccc2[n+]1[O-]",
    "Group": "inactive"
  },
  {
    "Compound": "CCCCCCCCCCCCCCCCCCNc1ccn(C2OC(COP(=O)(O)OCC3OC(n4cc(F)c(=O)[nH]c4=O)CC3O)C(O)C2O)c(=O)n1 (centres undefined)",
    "Group": "inactive"
  },
  {
    "Compound": "[N-]=[N+]=CC(=O)OCC1SCCCS1",
    "Group": "inactive"
  },
  {
    "Compound": "Clc1ccc(-c2nc3ccc4ccccc4c3c3c2CCCC3)cc1",
    "Group": "inactive"
  },
  {
    "Compound": "C=CCON(C(=O)OC(C)(C)C)C(C)(C)C",
    "Group": "inactive"
  },
  {
    "Compound": "CC[C@@]1(O)C(=O)OCc2c1cc1n(c2=O)Cc2cc3cc4c(cc3nc2-1)OCO4",
    "Group": "active"
  }
]
